Sourced from patent US10118935B2

Observed CC50 values for OVCAR-4 are listed in what follows.

[
  {
    "Structure": "C=C1C(=O)O[C@H]2[C@H]1CC/C(COC(=O)CCC(=O)NCCCCCCCCCNC(=O)CCC(=O)OC/C1=C/CC[C@@]3(C)O[C@H]3[C@H]3OC(=O)C(=C)[C@@H]3CC1)=C\\CC[C@@]1(C)O[C@@H]21",
    "Target Of Assay": "OVCAR-4",
    "CC50 (µM)": 8.06
  },
  {
    "Structure": "C=C1C(=O)O[C@H]2[C@H]1CC/C(COC(=O)CCC(=O)NCCCCCCCCNC(=O)CCC(=O)OC/C1=C/CC[C@@]3(C)O[C@H]3[C@H]3OC(=O)C(=C)[C@@H]3CC1)=C\\CC[C@@]1(C)O[C@@H]21",
    "Target Of Assay": "OVCAR-4",
    "CC50 (µM)": 9.38
  }
]
